assay: Serum concentration in mice after subcutaneous administration; format: in vivo; details: mouse, sc, subcutaneous 25 mg/kg, 1 hr
Structures can show the parent of a compound that is named as a salt.
Item-by-item account of concentration at 1 h
Value expressed in ng/mL; do not type the unit.

Here's what some known entries look like.
CCO/N=C(\C(=O)N[C@@H]1C(=O)N2C(C(=O)O)=C(CSc3cc[n+](CC(=O)O)cc3)CS[C@H]12)c1csc(N)n1.[Na+]: 4000
C[n+]1ccc(SCC2=C(C(=O)[O-])N3C(=O)[C@@H](NC(=O)/C(=N\OCC(=O)O)c4csc(N)n4)[C@H]3SC2)c2c1CCC2 [Example 51, sodium salt]: 5400
CO/N=C(\C(=O)N[C@@H]1C(=O)N2C(C(=O)O)=C(CSc3cc[n+](CC(=O)O)cc3)CS[C@H]12)c1csc(N)n1.[Na+]: 2200

Then there is this compound:
## Task Supply recorded concentration at 1 h for CO/N=C(\C(=O)N[C@@H]1C(=O)N2C(C(=O)[O-])=C(CSc3cc[n+](CC(=O)O)c4c3CCC4)CS[C@H]12)c1csc(N)n1 [Example 34, sodium salt] here.
## Result 6400

----------
Structures can show the parent of a compound that is named as a salt.
Reported MIC, Streptococcus faecalis ATCC 8043.
Could you give me the number in µg/mL? Just the number is fine.

CO/N=C(\C(=O)N[C@@H]1C(=O)N2C(C(=O)[O-])=C(CSc3cc[n+](CC(=O)O)c4c3CCC4)CS[C@H]12)c1csc(N)n1 [Example 34, sodium salt]: 6.25

## Task Write down MIC measured for item C[n+]1ccc(SCC2=C(C(=O)[O-])N3C(=O)[C@@H](NC(=O)/C(=N\OCC(=O)O)c4csc(N)n4)[C@H]3SC2)c2c1CCC2 [Example 51, sodium salt]
## Result 1.56

## Task Hello, please tell me recorded MIC for this one: CO/N=C(\C(=O)N[C@@H]1C(=O)N2C(C(=O)[O-])=C(CSc3cc[n+](CC(N)=O)c4c3CCC4)CS[C@H]12)c1csc(N)n1
## Result 0.2

## Task Tell me measured MIC for CO/N=C(\C(=O)N[C@@H]1C(=O)N2C(C(=O)[O-])=C(CSc3cc[n+](CCS(=O)(=O)O)c4c3CCC4)CS[C@H]12)c1csc(N)n1 [Example 39, sodium salt] please.
## Result 6.25

----------
tested on: Staphylococcus aureus Smith; experiment: Minimum Growth Inhibitory Concentration (MIC), Staphylococcus aureus Smith; assay type: cell-based; conditions: Table 2, bacterium 1: Staphylococcus aureus Smith; read-out: Minimum Growth Inhibitory Concentration (MIC)
Structures can show the parent of a compound that is named as a salt.
Readings of MIC for the listed compounds
Give the number; µg/mL is assumed, so skip it.

CCO/N=C(\C(=O)N[C@@H]1C(=O)N2C(C(=O)[O-])=C(CSc3cc[n+](C(C(=O)O)c4ccccc4)cc3)CS[C@H]12)c1csc(N)n1 (some centres unmarked) [Example 32, sodium salt]: 1.56

## Task Report MIC from Staphylococcus aureus Smith testing of CO/N=C(\C(=O)N[C@@H]1C(=O)N2C(C(=O)[O-])=C(CSc3cc[n+](CC(F)(F)F)cc3)CS[C@H]12)c1csc(N)n1
## Result 0.2

## Task Please tell me the measured MIC for CCO/N=C(\C(=O)N[C@@H]1C(=O)N2C(C(=O)[O-])=C(CSc3cccc[n+]3CC(=O)O)CS[C@H]12)c1csc(N)n1 [Example 33, sodium salt] ; system: Staphylococcus aureus Smith.
## Result 1.56

## Task Report its MIC with Staphylococcus aureus Smith as the test system: CC(C)(O/N=C(\C(=O)N[C@@H]1C(=O)N2C(C(=O)[O-])=C(CSc3cc[n+](CC(F)(F)F)cc3)CS[C@H]12)c1csc(N)n1)C(=O)O [Example 83, sodium salt]
## Result 6.25

## Task Write MIC of CCO/N=C(\C(=O)N[C@@H]1C(=O)N2C(C(=O)[O-])=C(CSc3cc[n+](C(C)C(=O)O)cc3)CS[C@H]12)c1csc(N)n1 (some centres unmarked) [Example 31, sodium salt] ; system used: Staphylococcus aureus Smith
## Result 3.13

## Task Report measured MIC on Staphylococcus aureus Smith; entry: Nc1nc(/C(=N/OCC(=O)O)C(=O)N[C@@H]2C(=O)N3C(C(=O)[O-])=C(CSc4cc[n+](CC(F)(F)F)cc4)CS[C@H]23)cs1 [Example 82, sodium salt]
## Result 3.13

## Task Please report the measured MIC for CO/N=C(\C(=O)N[C@@H]1C(=O)N2C(C(=O)[O-])=C(CSc3cc[n+](CCF)cc3)CS[C@H]12)c1csc(N)n1 tested on Staphylococcus aureus Smith.
## Result 0.2

## Task Param request: MIC | system Staphylococcus aureus Smith | item CCO/N=C(\C(=O)N[C@@H]1C(=O)N2C(C(=O)[O-])=C(CSc3cc[n+](CC(F)(F)F)cc3)CS[C@H]12)c1csc(N)n1
## Result 0.39
